# TEST SYSTEM: non-phosphorylated Abl1 kinase (Homo sapiens)
# Sequence (P00519 whole entry): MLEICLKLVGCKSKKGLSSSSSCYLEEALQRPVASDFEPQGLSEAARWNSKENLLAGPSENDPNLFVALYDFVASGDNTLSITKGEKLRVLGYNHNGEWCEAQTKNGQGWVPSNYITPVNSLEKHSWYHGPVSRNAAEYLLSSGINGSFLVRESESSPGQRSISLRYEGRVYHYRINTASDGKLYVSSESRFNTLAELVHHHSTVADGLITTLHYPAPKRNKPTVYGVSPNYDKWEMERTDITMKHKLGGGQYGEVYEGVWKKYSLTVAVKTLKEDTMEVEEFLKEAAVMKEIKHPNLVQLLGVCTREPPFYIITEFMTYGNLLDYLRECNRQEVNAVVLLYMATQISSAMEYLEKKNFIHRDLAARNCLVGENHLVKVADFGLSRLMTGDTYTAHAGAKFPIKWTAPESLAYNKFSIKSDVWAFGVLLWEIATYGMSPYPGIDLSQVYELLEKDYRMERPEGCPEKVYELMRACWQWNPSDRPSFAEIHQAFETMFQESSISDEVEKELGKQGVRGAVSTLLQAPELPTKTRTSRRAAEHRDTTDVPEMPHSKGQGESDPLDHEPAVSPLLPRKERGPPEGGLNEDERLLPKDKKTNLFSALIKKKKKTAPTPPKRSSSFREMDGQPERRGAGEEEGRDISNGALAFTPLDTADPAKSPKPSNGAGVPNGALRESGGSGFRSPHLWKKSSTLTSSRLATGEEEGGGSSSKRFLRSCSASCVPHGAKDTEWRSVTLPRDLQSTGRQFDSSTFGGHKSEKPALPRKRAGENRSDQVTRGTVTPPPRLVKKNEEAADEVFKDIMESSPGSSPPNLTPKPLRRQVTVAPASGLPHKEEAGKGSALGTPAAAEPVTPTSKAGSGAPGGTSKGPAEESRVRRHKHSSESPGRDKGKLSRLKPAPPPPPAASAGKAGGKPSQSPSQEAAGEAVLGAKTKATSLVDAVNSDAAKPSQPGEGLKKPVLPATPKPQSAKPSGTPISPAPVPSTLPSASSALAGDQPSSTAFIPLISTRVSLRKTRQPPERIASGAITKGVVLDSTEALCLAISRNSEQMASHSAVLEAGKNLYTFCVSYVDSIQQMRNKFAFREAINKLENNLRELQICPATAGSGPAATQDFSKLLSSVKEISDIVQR
# METHOD DESCRIPTION: KdELECT assay (DiscoverX), dissociation constants with Abl1 kinase
# CONDITION LABEL: Kd, Replicate 2, non-phosphorylated Abl1 kinase; single replicate 2, Hill equation
pKd: −log10 of the molar value.
REPORTED METRIC: pKd

Cc1ccc(C(=O)Nc2ccc(CN3CCN(C)CC3)c(C(F)(F)F)c2)cc1C#Cc1cnc2[nH]ncc2c1 [GZD824 (3), GZD824, reference compound]: 9.15
Cc1cn(-c2cc(C(F)(F)F)cc(NC(=O)c3ccc(C)c(Nc4nccc(-c5cccnc5)n4)c3)c2S)cn1: 6.10

A = Cc1ccc(C(=O)Nc2cc(C(F)(F)F)c(CN3CCN(C)CC3)cc2S)cc1C#Cc1cnc2[nH]ncc2c1
B = Cc1ccc(C(=O)Nc2cc(C(F)(F)F)c(CN3CCN(C)CC3)cc2S)cc1C#Cc1cnc2cccnn12
Q) Please indicate which entry, A or B , has the lower recorded pKd value. Identify your pick by its label.
A) A

Origin of measurements: paper PMC8528049
